Attribution: patent US4088772A

Consider the following compounds; for each one, report its ED50.
- ASSAY_NOTES: in vivo
- MEASUREMENT_SETUP: mouse, in vivo, po

c1ccc(OCCN2C[C@@H]3c4ccccc4[C@@H]4C[C@@]3(C2)c2ccccc24)cc1 (relative stereo) [Example 40]: > 324 mg/kg

For each of the compounds below, note its ED50.
1. c1ccc(CCN2C[C@@H]3c4ccccc4[C@@H]4C[C@@]3(C2)c2ccccc24)cc1 (relative stereo) [Example 39]
2. c1ccc2c(c1)[C@@H]1C[C@@]3(CN(C[C@H]4C[C@H]5CC[C@@H]4C5)C[C@H]23)c2ccccc21 (relative stereo) [Example 36]

Output line:
300 mg/kg
> 324 mg/kg

List ED50 for every entry below, keeping the order given.
1. C[N+]1([O-])C[C@@H]2c3ccccc3[C@@H]3C[C@@]2(C1)c1ccccc13 (relative stereo) [Methyl-N-oxide]
2. c1ccc2c(c1)C1CC3(CN(CC4CCCCC4)CC23)c2ccccc21 (centres unmarked) [Example 25]
3. c1ccc(CN2CC3c4ccccc4C4CC3(C2)c2ccccc24)cc1 (centres unmarked) [Example 4]
4. c1ccc2c(c1)C1CC3(CN(CCC4CCCCC4)CC23)c2ccccc21 (centres unmarked) [Example 29]
5. c1ccc2c(c1)C1CC3(CN(CC4CCCC4)CC23)c2ccccc21 (centres unmarked) [Example 7]

Output line:
1: 36 mg/kg; 2: 450 mg/kg; 3: > 324 mg/kg; 4: > 324 mg/kg; 5: > 324 mg/kg
